measure name: pKi
// pKi here means minus log10 of the molar concentration (mol/L)

Readout pKi for `Cc1cc2c(cc1C(F)(F)F)N(C(=O)Nc1cnc(Oc3cccnc3C)cn1)CC2` , test system UniProt P28335, was 8.70

Lab entry: UniProt P28335 assay, compound `Cc1ncccc1Oc1ccc(NC(=O)N2CCc3cc(Cl)c(Cl)cc32)cn1` , pKi = 8.70

Entry `Cc1ncccc1Oc1ccc(NC(=O)N2CCc3cc(Br)ccc32)cn1` , UniProt P28335 data, pKi value: 8.50

`Cc1ncccc1Oc1ccc(NC(=O)N2CCc3c2ccc(Cl)c3Cl)cn1` tested on UniProt P28335 gave pKi: 8.50

Entry `Cc1ncccc1Oc1ccc(NC(=O)N2CCc3cc(Br)c(C(F)(F)F)cc32)cn1` under UniProt P28335 had pKi of 8.90

Result for `Cc1cc2c(cc1Cl)N(C(=O)Nc1ccc(Oc3cccnc3C)nn1)CC2` , tested on UniProt P28335, pKi: 8.70

# `Cc1cc2c(cc1C(F)(F)F)N(C(=O)Nc1cnc(Oc3cccnc3C)c(Cl)c1)CC2` with UniProt P28335: pKi is 8.80

---

measure name: pKi
Note on pKi: it is the negative log10 of concentration, concentration in mol/L.

Kindly note: 5-hydroxytryptamine receptor 2B (Homo sapiens, UniProt P41595), `Cc1cc2c(cc1Br)N(C(=O)Nc1ccc(Oc3cccnc3C)nc1)CC2` , pKi value reported: 7.20

For the molecule `Cc1ncccc1Oc1ccc(NC(=O)N2CCc3cc(Cl)c(Cl)cc32)cn1` , the measured pKi on 5-hydroxytryptamine receptor 2B (Homo sapiens, UniProt P41595) was 6.50

The recorded pKi with 5-hydroxytryptamine receptor 2B (Homo sapiens, UniProt P41595) for `CCCc1ncccc1Oc1ccc(NC(=O)N2CCc3cc(C)c(Cl)cc32)cn1` was 7.00

Param item: `Cc1ncccc1Oc1ccc(NC(=O)N2CCc3ccccc32)cn1` ; param system: 5-hydroxytryptamine receptor 2B (Homo sapiens, UniProt P41595); output pKi: 5.70

Readout pKi for `CCc1cc2c(cc1C(F)(F)F)N(C(=O)Nc1ccc(Oc3cccnc3C)nc1)CC2` , test system 5-hydroxytryptamine receptor 2B (Homo sapiens, UniProt P41595), was 6.90

Form field, pKi with 5-hydroxytryptamine receptor 2B (Homo sapiens, UniProt P41595), item `Cc1ncccc1Oc1ccc(NC(=O)N2CCc3ccc(Cl)cc32)cn1` : 6.10

Per the reported 5-hydroxytryptamine receptor 2B (Homo sapiens, UniProt P41595) data, `Cc1cc2c(cc1C(F)(F)F)N(C(=O)Nc1cnc(Oc3cccnc3C)c(Cl)c1)CC2` has pKi of 7.40

---

- measurement target: UniProt:P28223
- Sequence (P28223 whole entry): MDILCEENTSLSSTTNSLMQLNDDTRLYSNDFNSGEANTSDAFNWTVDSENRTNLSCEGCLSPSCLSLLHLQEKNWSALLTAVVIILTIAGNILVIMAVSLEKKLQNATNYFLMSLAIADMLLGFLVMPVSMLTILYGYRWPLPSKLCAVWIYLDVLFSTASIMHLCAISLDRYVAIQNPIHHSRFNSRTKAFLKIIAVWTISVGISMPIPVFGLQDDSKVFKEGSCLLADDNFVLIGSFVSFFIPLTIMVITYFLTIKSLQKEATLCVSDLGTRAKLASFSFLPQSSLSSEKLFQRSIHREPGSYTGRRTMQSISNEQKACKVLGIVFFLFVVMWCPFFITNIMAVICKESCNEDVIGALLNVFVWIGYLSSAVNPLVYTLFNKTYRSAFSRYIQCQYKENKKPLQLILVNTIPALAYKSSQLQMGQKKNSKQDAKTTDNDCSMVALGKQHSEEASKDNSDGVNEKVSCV
- method notes: Binding affinity towards human cloned 5-hydroxytryptamine 2A receptor of HEK293 cells by displacement of [3H]ketanserin
- Type: cell-based
measure name: Ki

Ki reported for this compound `Cc1ccc2c(c1Br)CCN2C(=O)Nc1ccc(Oc2cccnc2C)nc1` : > 1 µM

compound `Cc1ncccc1Oc1ccc(NC(=O)N2CCc3cc(F)ccc32)cn1` , Ki observed: > 10 µM

Looking up `Cc1ncccc1Oc1ccc(NC(=O)N2CCc3ccccc32)cn1` , I found its Ki recorded as > 10 µM

---

Would you kindly list Selectivity for each of these molecules?
- measurement target: Serotonin receptor (2b and 2c) (Homo sapiens) (UniProt P41595+P28335)
- method notes: Selectivity expressed as ratio of serotonin 5-HT2C receptor over serotonin 5-HT2B receptor
- Type: protein assay
Give the figure by itself; no unit, no explanation.

# Selectivity measured on Serotonin receptor (2b and 2c) (Homo sapiens) (UniProt P41595+P28335) for item `Cc1cc2c(cc1Cl)CCN2C(=O)Nc1ccc(Oc2cccnc2C)nc1` = 100

Serotonin receptor (2b and 2c) (Homo sapiens) (UniProt P41595+P28335) Selectivity of `Cc1ccc2c(c1Br)CCN2C(=O)Nc1ccc(Oc2cccnc2C)nc1` is 160

Assay Serotonin receptor (2b and 2c) (Homo sapiens) (UniProt P41595+P28335), sample `CCc1ncccc1Oc1ccc(NC(=O)N2CCc3cc(C)c(Cl)cc32)cn1` , Selectivity read: 25

Value (Selectivity, Serotonin receptor (2b and 2c) (Homo sapiens) (UniProt P41595+P28335)) for record `Cc1cc2c(cc1C(F)(F)F)N(C(=O)Nc1cnc(Oc3cccnc3C)c(Cl)c1)CC2` = 25

Selectivity on Serotonin receptor (2b and 2c) (Homo sapiens) (UniProt P41595+P28335) for `Cc1cc2c(cc1F)N(C(=O)Nc1ccc(Oc3cccnc3C)nc1)CC2` is 100

Test item Cc1cc2c(cc1C(F)(F)F)N(C(=O)Nc1ccc(Oc3cccnc3C)nc1)CC2 [SB-243213] ; Serotonin receptor (2b and 2c) (Homo sapiens) (UniProt P41595+P28335); reported Selectivity was 100

Entry `Cc1ncccc1Oc1ccc(NC(=O)N2CCc3cc(Cl)ccc32)cn1` under Serotonin receptor (2b and 2c) (Homo sapiens) (UniProt P41595+P28335) had Selectivity of 320

// molecule `Cc1ncccc1Oc1ccc(NC(=O)N2CCc3cc(Br)ccc32)cn1` , assay Serotonin receptor (2b and 2c) (Homo sapiens) (UniProt P41595+P28335), Selectivity value: 200

Let me check: `Cc1cc2c(cc1Cl)N(C(=O)Nc1ccc(Oc3cccnc3C)nn1)CC2` , system Serotonin receptor (2b and 2c) (Homo sapiens) (UniProt P41595+P28335), measured Selectivity is 80

Assay Serotonin receptor (2b and 2c) (Homo sapiens) (UniProt P41595+P28335), sample `Cc1ncccc1Oc1ccc(NC(=O)N2CCc3cc(Br)c(C(F)(F)F)cc32)cn1` , Selectivity read: 80

Bench note, Serotonin receptor (2b and 2c) (Homo sapiens) (UniProt P41595+P28335): entry `CCc1cc2c(cc1C(F)(F)F)N(C(=O)Nc1ccc(Oc3cccnc3C)nc1)CC2` , its Selectivity = 50

Summary line: `Cc1cc2c(cc1C(F)(F)F)N(C(=O)Nc1cnc(Oc3cccnc3C)cn1)CC2` , Serotonin receptor (2b and 2c) (Homo sapiens) (UniProt P41595+P28335), reported Selectivity = 40

The molecule `Cc1ncccc1Oc1ccc(NC(=O)N2CCc3c2cc(C(F)(F)F)c2c3CCO2)cn1` on Serotonin receptor (2b and 2c) (Homo sapiens) (UniProt P41595+P28335): Selectivity was 50
